Provenance of the data: patent US12528790B2

Test system: RSV A2 strain
Test: In vitro CPE (CytoPathic Effect) inhibition effect evaluation test, RSV type A
Format: cell-based
Settings: human respiratory syncytial virus; inhibitory effect against RSV type A (RSV A2 strain), HEp-2 cells, CPE inhibition; read-out: EC50
pEC50: −log10 of the molar value.
Measurement Kind: pEC50

Compound: CC(C)(C)CC(NC(=O)c1cnc(-c2cn(C3CCC(F)(F)CC3)c3cc(OC4CCN(c5ncccn5)CC4)ccc23)nc1C(F)(F)F)C(=O)O (racemic) [Compound I-271]
Measurement Kind: pEC50
Experimental Value: > 8.00
--
Compound: O=C(NC1(C(=O)O)C2CC3CC(C2)CC1C3)c1cnc(N2CCc3cc(OCCC4CCOCC4)cnc32)cc1C(F)(F)F (stereo not drawn) [Compound I-126]
Measurement Kind: pEC50
Experimental Value: > 8.00
--
Compound: N#Cc1cnc(N2CCC(Oc3ccc4c(c3)C3(CCCCC3)CN4c3ncc(C(=O)NC4(C(=O)O)C5CC6CC(C5)CC4C6)c(C(F)(F)F)n3)CC2)nc1 (stereo not drawn) [Compound I-520]
Measurement Kind: pEC50
Experimental Value: > 8.00
